target_under_test: gt1b NS3 (Hepatitis C virus genotype 1b strain N, UniProt Q9WPH5 1028-1658)
test_summary: filter binding; 3 mM Mg2+; (stopped-flow kon 9.9 uM-1 s-1, Fig 2B); 25 mM MOPS-NH4+ pH 6.5, 3 mM MgCl2, 30 mM NaCl, 1% glycerol, 2 mM DTT, 0.1% Triton X-100; filter binding 37 C, 0.5 nM RNA, Hill fit; stopped flow 25 C
condition_context: protein: recombinant; tags: His6-SUMO removed (native N terminus); 5' Cy3 top strand via C3 amino linker (stopped flow); 3' overhang 12 nt on strand 1
readout: Kd (nM)
Express the result in nM but write the number alone.

[in] Which Kd value belongs to 12bp/12-OH (dsRNA) RNA 1: CGGCAGCGAGGCAGAGGAGCAGCA RNA 2: GCCUCGCUGCCG ?
[out] 15.7
